Data origin: PubChem BioAssay AID720706

# measurement-protocol: reduced GFP signal of wild-type E. coli, primary screen, bacterial rRNA inhibitor project, GFP/RFP fluorescence, OD600, single point (AID 720706)
# assay-conditions: E. coli WT GFP vs humanized-ribosome RFP mutants, 24 h; hits give low values, concentration not given here unless noted
Hit rate of the full screen: of about 350,000 compounds, about 5,500 (1.6%) were called active. Only a selection was taken, and actives are over-represented in it overall.

# smiles-data, GFP signal change (wild-type ribosome)
rows = [
    ("O=C(Cc1ccncc1)N1CCCCN2[C@H](CO)[C@@H](c3ccc(C#CC4(O)CCCC4)cc3)[C@H]2C1", "5.65% (inactive)"),
    ("O=[N+]([O-])c1cnc2ccc3ccccc3c2c1", "-67.7% (inactive)"),
    ("COC(=O)[C@@H]1[C@@H](CO)[C@@H]2Cn3c(ccc(-c4ccc(F)cc4)c3=O)[C@H]1N2C(C)=O", "-1.54% (inactive)"),
    ("COc1cccc(-c2ccc3n(c2=O)C[C@@H]2[C@@H](CO)[C@H](C(=O)O)[C@H]3N2C(=O)c2cnccn2)c1", "0.18% (inactive)"),
]

----------
# measurement-protocol: reduced GFP signal of wild-type E. coli, primary screen, bacterial rRNA inhibitor project, GFP/RFP fluorescence, OD600, single point (AID 720706)
# assay-conditions: E. coli WT GFP vs humanized-ribosome RFP mutants, 24 h, concentration not given here unless noted
In all, about 350,000 compounds went through this assay and about 5,500 (1.6%) were called active.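 How the source made its calls: active means significant combined selectivity score with lowered wild-type GFP, culture density cut under 30%, mutant RFP and density less affected; inactive means any of these conditions unmet.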 What follows is part of a selection rich in actives, with near analogues and random picks from the rest.
Labels: active, inactive

# compound, cat
records = [
    ("COC(=O)[C@@H]1[C@@H](CO)[C@@H]2Cn3c(ccc(-c4cccc(C(=O)N(C)C)c4)c3=O)[C@H]1N2C(=O)NC(C)C", "inactive"),
    ("O=C1CC(=O)N(Cc2ccccc2)C(=O)N1CCCCCCN1C(=O)CC(=O)N(Cc2ccccc2)C1=O", "active"),
    ("C[C@]12CCC3C(CC[C@H]4C[C@@H](O)CC[C@]34C)C1C[C@@H](O)[C@H]2O (some centres not stated)", "inactive"),
    ("C=CCN1[C@@H]2CN(S(C)(=O)=O)C[C@H]1C2c1ccc(Br)cc1 (some centres not stated)", "inactive"),
    ("O=C(O)[C@H]1[C@H](CO)[C@H]2Cn3c(cccc3=O)[C@@H]1N2C(=O)c1ccccc1", "inactive"),
    ("C[C@]12CCC3C(CC[C@H]4[C@H](O)[C@H](O)CC[C@]34C)C1CCC2=O (some centres not stated)", "inactive"),
    ("CC12CCC3C(CCC4CC(=O)CCC43C)C1CC(=NO)C2=O (configuration not stated)", "active"),
]
